These measurements were taken from PubChem BioAssay AID1445.

# inhibition per record follows
Tested Target: Aminopeptidase N (Plasmodium falciparum (isolate 3D7)) (UniProt O96935)
Sequence (O96935 whole entry, looked up): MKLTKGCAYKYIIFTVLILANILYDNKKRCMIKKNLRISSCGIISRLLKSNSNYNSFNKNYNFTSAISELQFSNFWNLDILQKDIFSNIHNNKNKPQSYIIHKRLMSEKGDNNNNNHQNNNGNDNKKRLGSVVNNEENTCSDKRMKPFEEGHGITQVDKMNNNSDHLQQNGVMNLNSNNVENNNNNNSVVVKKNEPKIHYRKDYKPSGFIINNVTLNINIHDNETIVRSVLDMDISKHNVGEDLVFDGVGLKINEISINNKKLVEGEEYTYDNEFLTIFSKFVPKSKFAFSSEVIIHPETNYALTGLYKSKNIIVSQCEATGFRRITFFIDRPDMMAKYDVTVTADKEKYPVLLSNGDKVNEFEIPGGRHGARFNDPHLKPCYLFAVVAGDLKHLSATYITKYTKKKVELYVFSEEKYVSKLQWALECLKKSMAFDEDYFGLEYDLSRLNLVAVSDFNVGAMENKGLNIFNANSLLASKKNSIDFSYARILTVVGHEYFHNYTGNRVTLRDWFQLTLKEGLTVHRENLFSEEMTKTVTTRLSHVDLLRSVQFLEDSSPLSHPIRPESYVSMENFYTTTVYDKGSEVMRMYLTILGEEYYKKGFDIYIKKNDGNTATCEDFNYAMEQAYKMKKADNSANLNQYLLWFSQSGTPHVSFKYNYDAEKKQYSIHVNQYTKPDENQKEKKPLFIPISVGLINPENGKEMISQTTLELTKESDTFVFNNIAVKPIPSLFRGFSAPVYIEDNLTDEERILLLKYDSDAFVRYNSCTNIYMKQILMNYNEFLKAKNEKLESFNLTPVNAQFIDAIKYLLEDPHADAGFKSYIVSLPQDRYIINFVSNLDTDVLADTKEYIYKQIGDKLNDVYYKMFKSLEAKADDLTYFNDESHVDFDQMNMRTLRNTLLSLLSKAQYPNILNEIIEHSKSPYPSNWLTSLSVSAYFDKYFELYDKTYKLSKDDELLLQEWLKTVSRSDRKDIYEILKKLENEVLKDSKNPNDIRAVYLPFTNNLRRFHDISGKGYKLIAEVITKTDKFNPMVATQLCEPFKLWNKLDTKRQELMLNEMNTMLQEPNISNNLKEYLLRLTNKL
Test Details: malaria alanyl aminopeptidase activity blockers – biochemical, fluorogenic H-Leu-NHMec substrate, 1536-well (AID 1445);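 note: plate controls were DMSO full reaction for no effect and no enzyme background for full effect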
Experimental Parameters: recombinant M1AAP, H-Leu-NHMec fluorogenic kinetic assay; at 30 µM, hits give high values unless noted
About 910 (0.41%) of roughly 220,000 compounds were called active. For the sample, actives were picked, then their nearest neighbours and some compounds at random. Potency and affinity values are given separately.
# value in %; strip the unit string

Challenge: What measured inhibition goes with O=C(/C(=C/O)N=Nc1ccc(Cl)cc1)c1ccncc1 ?
Response given: 0.62

Challenge: # query: inhibition of entry Cc1[nH]n(-c2ccccc2)c(=O)c1-c1ccc(Cl)cc1
Response given: 17.9

Challenge: Entry CC(=O)N1C(=O)/C(=C2\SC(=S)N(c3c(C)n(C)n(-c4ccccc4)c3=O)C2=O)c2ccccc21 has what inhibition?
Response given: 9.72

Challenge: Param item = O=C(NCc1cccs1)c1nc2c(nnn2Cc2ccc(F)cc2)c(=O)[nH]1 ; retrieve measured inhibition.
Response given: 2.78

Challenge: Name the reported inhibition value associated with the molecule CC(/C=C1\SC(=S)N(NC(=O)c2ccc(C)cc2)C1=O)=C\c1ccccc1
Response given: 5.4

Challenge: // returns reported inhibition for input CCN1C(=O)/C(=C2\SC(=S)N(CC3CCCO3)C2=O)c2ccccc21 (stereo unspecified)
Response given: 2.68

Challenge: Any idea what inhibition was measured for Cc1cc(C(=O)CSc2nnc(C3COc4ccccc4O3)n2C)c(C)n1-c1ccc(F)cc1 (stereo unspecified) ?
Response given: 7.16

Challenge: Which inhibition is listed for c1ccc2sc(NC3=NCN(CCN4CCOCC4)CN3)nc2c1 ?
Response given: -2.82

Challenge: Given Cc1ccc(S(=O)(=O)N2C(=O)/C(=C3\SC(=S)NC3=O)c3ccccc32)cc1 , state its recorded inhibition.
Response given: 16.8

Challenge: // inhibition lookup, key: CC(=O)Nc1ccc(OCC(O)Cn2c(CO)nc3ccccc32)cc1 (stereo unspecified)
Response given: 6.49

Challenge: Find the recorded inhibition belonging to Cc1[nH]n(-c2cccc(Cl)c2)c(=O)c1-c1ccc(Cl)cc1 and report it.
Response given: 27.2
